Data credit: patent US8076286B2

Assay: Liposome leakage assay (carboxyfluorescein), PC liposomes
Format: biochemical
Settings: dioleoylphosphatidylcholine 60 mol %/cholesterol 40 mol % liposomes, 10 mM Tris pH 7.4, without NaCl; scale 100% = Triton X100 release; unit not in table
value kind: CF leakage PC − NaCl (%)
Record the value in %, omitting the unit from your answer.

1) SEKTLRKWLKMFKKRQLELY (listed as Homo sapiens) [SEK20]: 98

Ask: # input sequence: NWRENLDRDIALMKLKKP (listed as Homo sapiens) [NVR18] ; wanted: its CF leakage PC − NaCl
Reply: 4

Ask: Then what about the sequence GKYGIYTKVSRYVNWIKEKTKLT (listed as Homo sapiens) [GKY23, FA9_HUMAN aa 439-461] ?
Reply: 86

Ask: Then what about the sequence CQKRYRGHKITHKMIC (listed as Homo sapiens) [CQK16, FA11_HUMAN aa 545-560] ?
Reply: 64
